Numbers sourced from patent US9345247B2.

- PROTOCOL_NOTES: log P by HPLC on reversed-phase column (C18), EEC directive 79/831 Annex V.A8
- Assay type: physicochemical
- MEASUREMENT_PARAMETERS: reversed-phase HPLC column (C18); HPLC, acidic range pH 2.7, 43° C.; read-out: log p
PARAMETER_MEASURED: chromatographic logP

1) CCCNC(=O)c1cc2cc(C(=O)NC(c3cccc(C(F)(F)F)c3)C(F)(F)F)n(CC)c2nc1Cl (stereo not shown) [Compound 34] :: 3.99
2) CCn1c(C(=O)NC(c2cccc(C(F)(F)F)c2)C(F)(F)F)cc2cc(C(=O)NCC#N)c(Cl)nc21 (stereo not shown) [Compound 42] :: 3.5
3) CN(C(=O)c1cc2cc(C(=O)NC3(C#N)CC3)c(Cl)nc2n1C)C(c1cccc(C(F)(F)F)c1)C(F)(F)F (stereo not shown) [Compound 97] :: 3.59
4) CCn1c(C(=O)NC(c2cccc(C(F)(F)F)c2)C(F)(F)F)cc2cc(C(=O)NC(C)C)c(Cl)nc21 (stereo not shown) [Compound 14] :: 3.97

====

- PROTOCOL_NOTES: log P by HPLC on reversed-phase column (C18), EEC directive 79/831 Annex V.A8
- Type: physicochemical
- MEASUREMENT_PARAMETERS: HPLC, acidic range pH 2.7, 43° C.
- Experimental: a) The determination of the W by LC-MS in the acidic range is effected at pH 2.7, acetonitrile (contains 0.1% formic acid) and water as eluents; linear gradient from 10% acetonitrile to 95% acetonitrile, instrument: Agilent 1100 LC-System, Agilent MSD System, HTS PAL. The log P values reported in the tables and Preparation Examples above were determined in accordance with EEC directive 79/831 Annex V.A8 by HPLC (High Performance Liquid Chromatography) using a reversed-phase column (C18). […]
PARAMETER_MEASURED: log p

1. CCn1c(C(=O)NC(c2ccc(F)c(C(F)(F)F)c2)C(F)(F)F)cc2cc(C(=O)NC(C)C)c(Cl)nc21 (stereo not shown) :: 4.08
2. C#CCn1c(C(=O)NC(c2cc(Cl)c(F)c(Cl)c2F)C(F)(F)F)cc2cc(C(=O)NC3CC3)c(Cl)nc21 (stereo not shown) :: 4.01
3. CCn1c(C(=O)NC(c2cccc(C(F)(F)F)c2)C(F)(F)F)cc2cc(C(=O)NC3CC3)cnc21 (stereo not shown) :: 3.19
4. CCn1c(C(=O)NC(c2cccc(C(F)(F)F)c2)C(F)(F)F)cc2cc(C(=O)NC3(C#N)CC3)c(Cl)nc21 (stereo not shown) :: 3.68

====

- PROTOCOL_NOTES: log P by HPLC on reversed-phase column (C18), EEC directive 79/831 Annex V.A8
- Type: physicochemical
- MEASUREMENT_PARAMETERS: reversed-phase HPLC column (C18); HPLC, acidic range pH 2.7, 43° C.; read-out: log p
Known chromatographic logP of a selection of molecules
PARAMETER_MEASURED: chromatographic logP

1. Cn1c(C(=O)NC(c2cccc(C(F)(F)F)c2)C(F)(F)F)cc2cc(C(=O)NC3CC3)c(Cl)nc21 (stereo not drawn) [Compound 22] :: 3.4
2. CCn1c(C(=O)NC(c2ccc(Cl)c(C(F)(F)F)c2)C(F)(F)F)c(Br)c2cc(C(=O)NC3(C(N)=S)CC3)c(C)nc21 (stereo not drawn) [Compound 98] :: 3.97
3. CN(C(=O)c1cc2cc(C(=O)NC3CC3)c(Cl)nc2n1C)C(c1cccc(C(F)(F)F)c1)C(F)(F)F (stereo not drawn) [Compound 96] :: 3.63

====

- PROTOCOL_NOTES: log P by HPLC on reversed-phase column (C18), EEC directive 79/831 Annex V.A8
- Type: physicochemical
- MEASUREMENT_PARAMETERS: HPLC, acidic range pH 2.7, 43° C.
Label 1 (yes) when log p is at or above 4; anything below gets 0 (no).

1) CCn1c(C(=O)NC(c2cc(Cl)c(F)c(Cl)c2)C(F)(F)F)cc2cc(C(=O)NC3CCC3)c(Cl)nc21 (centres unmarked) [Compound 48] :: 1 (yes)
2) CCn1c(C(=O)NC(c2cccc(C(F)(F)F)c2)C(F)(F)F)cc2cc(C(=O)NC(CF)CF)c(C)nc21 (centres unmarked) [Compound 8] :: 0 (no)
3) CCn1c(C(=O)NC(c2cc(Cl)c(F)c(Cl)c2)C(F)(F)F)cc2cc(C(=O)NC3CC3)c(C(F)(F)F)nc21 (centres unmarked) [Compound 86] :: 1 (yes)
4) CCn1c(C(=O)NC(c2cccc(C(F)(F)F)c2)C(F)(F)F)cc2cc(C(=O)NCc3ncccn3)c(Cl)nc21 (centres unmarked) [Compound 47] :: 0 (no)

====

- PROTOCOL_NOTES: log P by HPLC on reversed-phase column (C18), EEC directive 79/831 Annex V.A8
- Type: physicochemical
- MEASUREMENT_PARAMETERS: HPLC, acidic range pH 2.7, 43° C.
# if measured log p < 4: TRUE  # else: FALSE

1. CCn1c(C(=O)NC(c2ccc(F)c(C(F)(F)F)c2)C(F)(F)F)cc2cc(C(=O)NC3(C(N)=S)CC3)c(Cl)nc21 (stereo not drawn) :: TRUE
2. CCn1c(C(=O)NC(c2ccc(F)c(Cl)c2)C(F)(F)F)cc2cc(C(=O)NC3(C(N)=S)CC3)c(Cl)nc21 (stereo not drawn) :: TRUE
3. CCn1c(C(=O)NC(c2ccc(F)c(C(F)(F)F)c2)C(F)(F)F)cc2cc(C(=O)NC3(C#N)CC3)c(Cl)nc21 (stereo not drawn) :: TRUE
4. C#CCn1c(C(=O)NC(c2ccc(F)c(C(F)(F)F)c2)C(F)(F)F)cc2cc(C(=O)NC3CC3)c(Cl)nc21 (stereo not drawn) :: TRUE
5. CCn1c(C(=O)NC(c2cccc(C(F)(F)F)c2)C(F)(F)F)cc2cc(C(=O)NC3COC3)c(Cl)nc21 (stereo not drawn) :: TRUE
6. CCn1c(C(=O)NC(c2cc(Cl)c(F)c(Cl)c2)C(F)(F)F)cc2cc(C(=O)NCc3ccccn3)c(Cl)nc21 (stereo not drawn) :: TRUE
7. CCn1c(C(=O)NC(c2cc(Cl)c(F)c(Cl)c2)C(F)(F)F)cc2cc(C(=O)NC3(C(N)=S)CC3)c(C(F)(F)F)nc21 (stereo not drawn) :: FALSE
8. CCn1c(C(=O)NC(c2ccc(F)c(C(F)(F)F)c2)C(F)(F)F)cc2cc(C(=O)NC3CC3)c(C)nc21 (stereo not drawn) :: TRUE
9. C#CCn1c(C(=O)NC(c2cccc(C(F)(F)F)c2)C(F)(F)F)cc2cc(C(=O)NC3CC3)c(Cl)nc21 (stereo not drawn) :: TRUE
10. CCn1c(C(=O)NC(c2ccc(Cl)c(Cl)c2)C(F)(F)F)cc2cc(C(=O)NC(C)C)c(Cl)nc21 (stereo not drawn) :: FALSE
11. C#CCn1c(C(=O)NC(c2cc(Cl)c(F)c(Cl)c2)C(F)(F)F)cc2cc(C(=O)NC3CC3)c(Cl)nc21 (stereo not drawn) :: TRUE
12. CCn1c(C(=O)NC(c2cc(Cl)c(F)c(Cl)c2F)C(F)(F)F)cc2cc(C(=O)NC(C)C)c(Cl)nc21 (stereo not drawn) :: FALSE
13. CCn1c(C(=O)NC(c2ccc(F)c(C(F)(F)F)c2)C(F)(F)F)cc2cc(C(=O)NC3CCC3)c(Cl)nc21 (stereo not drawn) :: FALSE
14. C#CCNC(=O)c1cc2cc(C(=O)NC(c3cccc(C(F)(F)F)c3)C(F)(F)F)n(CC)c2nc1Cl (stereo not drawn) :: TRUE
15. CCn1c(C(=O)NC(c2cc(Cl)c(F)c(Cl)c2F)C(F)(F)F)cc2cc(C(=O)NC3CC3)c(C(F)(F)F)nc21 (stereo not drawn) :: FALSE
16. CCn1c(C(=O)NC(c2cccc(C(F)(F)F)c2)C(F)(F)F)cc2cc(C(=O)NC3CCC3)c(Cl)nc21 (stereo not drawn) :: FALSE
17. CCn1c(C(=O)NC(c2cccc(C(F)(F)F)c2)C(F)(F)F)cc2cc(C(=O)NCc3ccccn3)c(C)nc21 (stereo not drawn) :: TRUE
18. CCn1c(C(=O)NC(c2ccc(Cl)c(C(F)(F)F)c2)C(F)(F)F)cc2cc(C(=O)NC3(C(N)=S)CC3)c(C)nc21 (stereo not drawn) :: TRUE
19. CCn1c(C(=O)NC(c2cc(Cl)c(F)c(Cl)c2F)C(F)(F)F)cc2cc(C(=O)NC3CC3)c(Cl)nc21 (stereo not drawn) :: FALSE
20. CCn1c(C(=O)NC(c2cccc(C(F)(F)F)c2)C(F)(F)F)cc2cc(C(=O)NCc3ccccn3)c(Cl)nc21 (stereo not drawn) :: TRUE
21. CCn1c(C(=O)NC(c2ccc(F)c(C(F)(F)F)c2)C(F)(F)F)cc2cc(C(=O)NC3(C#N)CC3)c(C)nc21 (stereo not drawn) :: TRUE
22. CCn1c(C(=O)NC(c2cc(Cl)c(F)c(Cl)c2F)C(F)(F)F)cc2cc(C(=O)NC3(C#N)CC3)c(Cl)nc21 (stereo not drawn) :: FALSE
23. CCn1c(C(=O)NC(c2ccc(F)c(Cl)c2)C(F)(F)F)cc2cc(C(=O)NC3(C#N)CC3)c(Cl)nc21 (stereo not drawn) :: TRUE
